All values here come from ChEMBL document CHEMBL4414598.

tested_system: UniProtKB P29274
assay_protocol: Displacement of [3H]ZM241385 from human recombinant A2A receptor expressed in human HeLa cell membranes at 1 uM incubated for 30 mins by radioligand binding competition assay relative to control
recorded_endpoint: inhibition (%)
State the answer as a number, implicitly in %.

Worked examples, 2 compounds total:
Exam item: Which inhibition value is on record for CC1=C(C(=O)OC(C(F)(F)F)C(F)(F)F)C(c2cccs2)n2c(nc3ccccc32)N1 (racemic) ?
Marked response: 10

Exam item: Queued: CC(C)OC(=O)C1=C(C(F)(F)F)Nc2nc3ccccc3n2C1c1ccco1 (racemic)
Marked response: 10

Below: the item to evaluate.
Exam item: Give the measured inhibition of CCOC(=O)C1=C(C)Nc2nc3ccccc3n2C1c1ccsc1 (stereo not drawn) .
Marked response: 10

###

tested_system: Adenosine receptor A2a (Homo sapiens)
Sequence (P29274 whole entry): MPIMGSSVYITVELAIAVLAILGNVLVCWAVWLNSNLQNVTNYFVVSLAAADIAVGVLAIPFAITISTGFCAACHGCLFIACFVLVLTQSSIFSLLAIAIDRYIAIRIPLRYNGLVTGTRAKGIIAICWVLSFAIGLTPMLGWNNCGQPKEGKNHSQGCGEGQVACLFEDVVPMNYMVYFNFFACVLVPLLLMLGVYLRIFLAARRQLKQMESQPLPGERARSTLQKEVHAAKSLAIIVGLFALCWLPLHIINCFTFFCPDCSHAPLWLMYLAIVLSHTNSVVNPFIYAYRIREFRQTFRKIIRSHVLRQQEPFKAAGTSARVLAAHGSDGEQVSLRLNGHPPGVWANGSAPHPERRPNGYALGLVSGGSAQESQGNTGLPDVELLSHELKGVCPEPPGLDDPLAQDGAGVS
assay_protocol: Displacement of [3H]ZM241385 from human recombinant A2A receptor expressed in human HeLa cell membranes at 1 uM incubated for 30 mins by radioligand binding competition assay relative to control
Known inhibition of a selection of compounds
Reply with just the number (in %).

Please review the entries below; each comes with its answer.
Exam item: What reported inhibition corresponds to `CC1=C(C(=O)O[C@H](C)C(F)(F)F)[C@H](c2ccco2)n2c(nc3ccccc32)N1` on Adenosine receptor A2a (Homo sapiens)?
Marked response: 2

Exam item: Note, next up: CC1=C(C(=O)OC(C)C(F)(F)F)C(c2cccs2)n2c(nc3ccccc32)N1 (racemic)
Marked response: 2

# input for lookup
Exam item: Query inhibition on Adenosine receptor A2a (Homo sapiens) for CC1=C(C(=O)OC(C)C(F)(F)F)C(c2cccs2)NC(=O)N1 (stereo in doubt; 14k-D1)
Marked response: 2

###

tested_system: Adenosine receptor A3 (Homo sapiens) (UniProt P0DMS8)
Sequence (whole entry): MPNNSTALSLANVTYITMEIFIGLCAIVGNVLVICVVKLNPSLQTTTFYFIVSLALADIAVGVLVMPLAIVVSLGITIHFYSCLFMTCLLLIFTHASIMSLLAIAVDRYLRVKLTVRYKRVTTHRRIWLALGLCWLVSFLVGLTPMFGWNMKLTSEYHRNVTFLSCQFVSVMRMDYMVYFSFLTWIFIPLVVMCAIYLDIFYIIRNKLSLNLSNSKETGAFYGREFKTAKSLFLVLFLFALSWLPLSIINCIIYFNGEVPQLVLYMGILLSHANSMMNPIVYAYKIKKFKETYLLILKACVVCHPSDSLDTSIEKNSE
assay_protocol: Displacement of [3H]NECA from human A3 receptor expressed in human HeLa cell membranes at 1 uM incubated for 180 mins by radioligand binding competition assay relative to control
Examples of compounds with documented inhibition follow.
Answer format: number, then unit.

Exam item: Sample CC(C)OC(=O)C1=C(C(F)(F)F)NC(=O)NC1c1ccco1 (racemic) — what was its inhibition?
Marked response: 5%

Exam item: Now consider CCOC(=O)C1=C(C(F)(F)F)NC(=O)NC1c1ccsc1 (racemic) and answer again.
Marked response: 3%

Exam item: Again, but for CC1=C(C(=O)OC(C)C(F)(F)F)C(c2ccco2)NC(=O)N1 (stereo in doubt; 14i-D1)
Marked response: 11%

New cases:
Exam item: Which inhibition value belongs to CC1=C(C(=O)OCC(F)(F)F)C(c2cccs2)n2c(nc3ccccc32)N1 (racemic) ?
Marked response: 2%

###

tested_system: Adenosine receptor A1 (Homo sapiens)
Sequence (whole entry): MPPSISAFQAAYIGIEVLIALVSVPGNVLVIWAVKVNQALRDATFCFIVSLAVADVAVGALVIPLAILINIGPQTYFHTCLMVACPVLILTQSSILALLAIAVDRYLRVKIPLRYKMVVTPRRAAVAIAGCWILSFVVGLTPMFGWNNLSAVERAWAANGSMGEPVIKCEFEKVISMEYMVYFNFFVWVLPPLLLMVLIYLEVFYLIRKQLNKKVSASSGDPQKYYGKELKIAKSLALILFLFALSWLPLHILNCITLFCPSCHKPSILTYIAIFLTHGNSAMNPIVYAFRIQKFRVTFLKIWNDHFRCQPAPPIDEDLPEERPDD
assay_protocol: Displacement of [3H]DPCPX from human recombinant A1 receptor expressed in CHOA1 cell membranes at 1 uM incubated for 60 mins by radioligand binding competition assay relative to control
Tag: fulfilled if measured inhibition is not below 10%, not fulfilled if it is.

Illustrative cases are given below, each with its answer.
Exam item: Check the entry CC1=C(C(=O)OC(C)C(F)(F)F)C(c2ccoc2)n2c(nc3ccccc32)N1 (racemic) : does inhibition equal or exceed 10%?
Marked response: not fulfilled

Exam item: Also CC1=C(C(=O)OC(C)C(F)(F)F)C(c2ccco2)NC(=O)N1 (stereo in doubt; 14i-D2) , if possible.
Marked response: not fulfilled

Exam item: Can you handle CC1=C(C(=O)OC(C)C(F)(F)F)C(c2ccco2)n2c(nc3ccccc32)N1 (racemic) next?
Marked response: not fulfilled

Exam item: Query CC1=C(C(=O)OC(C)C)C(c2ccco2)n2c(nc3ccccc32)N1 (centres undefined) next
Marked response: fulfilled

New cases:
Exam item: Is reported inhibition greater than or equal to 10% here: CC1=C(C(=O)OC(C)C(F)(F)F)C(c2ccsc2)NC(=O)N1 (stereo in doubt; 14l-D1)
Marked response: not fulfilled

Exam item: // same read-out, input: CCOC(=O)C1=C(C(F)(F)F)Nc2nc3ccccc3n2C1c1ccsc1 (racemic)
Marked response: fulfilled

Exam item: Let us now turn to CCOC(=O)C1=C(C(F)(F)F)Nc2nc3ccccc3n2C1c1ccco1 (racemic)
Marked response: fulfilled

Exam item: Now consider CC1=C(C(=O)OC(C)C(F)(F)F)C(c2cccs2)n2c(nc3ccccc32)N1 (racemic) and answer again.
Marked response: fulfilled

Exam item: For CC1=C(C(=O)O[C@@H](C)C(F)(F)F)C(c2ccco2)n2c(nc3ccccc32)N1 (mixture of isomers) then?
Marked response: fulfilled

Exam item: Subsequent entry: CC1=C(C(=O)OCC(F)(F)F)C(c2ccoc2)NC(=O)N1 (racemic)
Marked response: fulfilled

Exam item: Repeat for the following compound: CC1=C(C(=O)OC(C(F)(F)F)C(F)(F)F)C(c2cccs2)NC(=O)N1 (racemic)
Marked response: not fulfilled

Exam item: Same question, CC1=C(C(=O)OC(C)C)C(c2cccs2)n2c(nc3ccccc32)N1 (centres undefined) this time
Marked response: not fulfilled

Exam item: Another compound to look at: `CC1=C(C(=O)OCC(F)(F)F)[C@@H](c2ccco2)n2c(nc3ccccc32)N1`
Marked response: not fulfilled

Exam item: CC1=C(C(=O)OC(C(F)(F)F)C(F)(F)F)C(c2cccs2)n2c(nc3ccccc32)N1 (racemic) ?
Marked response: fulfilled

Exam item: Ok, now `CCOC(=O)C1=C(C(F)(F)F)Nc2nc3ccccc3n2[C@@H]1c1ccoc1`
Marked response: fulfilled

Exam item: Another compound to look at: CC(C)OC(=O)C1=C(C(F)(F)F)NC(=O)NC1c1cccs1 (racemic)
Marked response: not fulfilled

Exam item: What about CC1=C(C(=O)OCC(F)(F)F)C(c2ccoc2)n2c(nc3ccccc32)N1 (racemic) ?
Marked response: fulfilled

Exam item: Note, next up: CC(C)OC(=O)C1=C(C(F)(F)F)Nc2nc3ccccc3n2C1c1cccs1 (racemic)
Marked response: not fulfilled
